Taken from patent US20240166738A1.

Experimental system: GST-TMEM106B (truncated, comprising amino acids 122-210 of SEQ ID NO:1) (Homo sapiens, UniProt Q9NUM4)
Sequence (Q9NUM4 122-210): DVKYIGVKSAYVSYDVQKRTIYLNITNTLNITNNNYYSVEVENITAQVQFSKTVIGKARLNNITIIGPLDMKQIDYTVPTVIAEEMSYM
Method description: Pre-mix epitope binning of anti-TMEM106B antibodies (Carterra / Lake Pharma)
Assay type: binding
Run conditions: epitope bin number; pre-mix binning on truncated GST-TMEM106B
Method: Monoclonal anti-TMEM106B antibodies were immobilized to a CMD 50M chip (Xantec # SPMXCMD5OM lot# SCCMD50M0416). The running buffer was HBS-EP+ with 1 mg/mL BSA. The GST-TMEM106B (truncated, comprising amino acids 122-210 of SEQ ID NO:1) antigen was prepared at a final concentration of 55 nM (corresponding to 2 μg/mL) and mixed with the competing analyte anti-TMEM106B antibodies at a final concentration of 333 nM (corresponding to 50 μg/mL) or compared to a buffer control. […]
Recorded metric: Binding Community/Bin
Give the value as a plain number.

{"Molecule": "TM-64: anti-TMEM106B monoclonal antibody; VH SEQ ID NO: 470, VL SEQ ID NO: 506 (antibody, V domains shown, Variable Heavy Chain -- TM-64; Variable Light Chain -- TM-64) VH: QVQLQQPGAELVKPGASVKLSCKASGYTFTSYWMHWVKQRPGHGLEWIGNIDPSDSDTHYNQNFRGKATLTVDKFSTTAYMHLSSLTSEDSAVYYCARSRGGTYDYGEAMDYWGQGTSVTVSS VL: DIVMTQAAPSVPVTPGESVSISCRSSKSLLHTNGNTYLFWFLQRPGRSPQLLIYRMSNLASGVPDRFSGSGSGTAFTLRISRVEAEDVGVYYCMQHLEYPFTFGSGTKLEIK", "Recorded metric": "Binding Community/Bin", "Endpoint value": 4}

Now consider the entry below.
Q) Provide measured Binding Community/Bin value, entry: TM-35: anti-TMEM106B monoclonal antibody; CDR-H1-3 SEQ ID NO: 24, 66, 109; CDR-L1-3 SEQ ID NO: 148, 160, 194 (antibody, V domains shown) VH: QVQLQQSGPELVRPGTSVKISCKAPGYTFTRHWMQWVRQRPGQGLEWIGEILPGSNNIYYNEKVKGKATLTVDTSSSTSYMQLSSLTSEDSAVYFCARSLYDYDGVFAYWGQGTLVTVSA VL: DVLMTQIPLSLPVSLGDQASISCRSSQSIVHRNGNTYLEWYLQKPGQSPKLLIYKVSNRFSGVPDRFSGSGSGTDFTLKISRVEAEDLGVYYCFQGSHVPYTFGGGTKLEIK
A) 2
